Data origin: patent US11111248B2

- Protocol notes: isothermal sorption (dynamic vapor sorption)
- Format: physicochemical
- Measurement conditions: isothermal sorption, 0% RH to 80% RH
- Description: Dynamic vapor sorption data and isothermal sorption data were collected on TA Instruments Q5000 TGA. Method: A sample of 1 to 10 mg was placed in a platinum pan; the weight change of the sample during the change in relative humidity from 0% to 80% to 0% was measured.
Measurement kind: hygroscopicity

Compound: Cc1cccc(-c2nn3c(c2-c2ccnc4ccc(C(N)=O)cc24)CCC3)n1 [LY2157299 Form 3]
Reported result: non-hygroscopic
--
Compound: Cc1cccc(-c2nn3c(c2-c2ccnc4ccc(C(N)=O)cc24)CCC3)n1 [LY2157299 Monohydrate]
Reported result: slightly hygroscopic
--
Compound: Cc1cccc(-c2nn3c(c2-c2ccnc4ccc(C(N)=O)cc24)CCC3)n1 [LY2157299 Form 1]
Reported result: non-hygroscopic
--
Compound: Cc1cccc(-c2nn3c(c2-c2ccnc4ccc(C(N)=O)cc24)CCC3)n1 [LY2157299 Form 4]
Reported result: slightly hygroscopic

Could you now look at the following compound, please?
For reference, reported hygroscopicity for Cc1cccc(-c2nn3c(c2-c2ccnc4ccc(C(N)=O)cc24)CCC3)n1 [LY2157299 Form 2] stands at slightly hygroscopic
